# study-system: Recombinant human JAK3 enzyme (JAK3 kinase region; Ala795-Ser1124) (Homo sapiens)
# Sequence (P52333 795-1124): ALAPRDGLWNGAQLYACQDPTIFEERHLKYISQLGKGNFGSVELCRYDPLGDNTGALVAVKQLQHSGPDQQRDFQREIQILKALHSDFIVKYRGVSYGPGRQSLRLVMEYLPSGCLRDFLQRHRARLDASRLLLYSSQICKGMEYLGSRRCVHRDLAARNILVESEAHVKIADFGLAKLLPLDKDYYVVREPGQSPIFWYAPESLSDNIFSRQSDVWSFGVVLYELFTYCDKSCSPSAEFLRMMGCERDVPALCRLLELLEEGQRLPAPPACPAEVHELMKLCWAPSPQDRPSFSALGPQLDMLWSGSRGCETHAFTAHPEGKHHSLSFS
# assay-method-text: JAK3 Kinase Assay (Kinase-Glo luminescent, ATP consumption)
# experimental-context: read-out: Inhibition rate (%) of JAK3 kinase activity
Please provide measured inhibition at 0.1 µM for the entries that follow.
Answers are plain numbers, in %.

smiles-data	inhibition at 0.1 µM / %
NC(=O)c1cnc(Nc2ccc(S(N)(=O)=O)cc2)cc1NCc1cc(F)cc(F)c1	70

Report inhibition at 0.1 µM for each item below.
1. CCN(CC)CCN1CCN(c2ccc(Nc3cc(NCc4cc(F)cc(F)c4)c(C(N)=O)cn3)cc2)CC1
2. NC(=O)c1cnc(Nc2ccc(N3CCC(CCO)CC3)cc2)cc1NCc1ccccc1

1: 100; 2: 89

Report inhibition at 0.1 µM for each item below.
1. NC(=O)c1cnc(Nc2ccc(N)cc2)cc1NCc1ccccc1
2. C[C@@H]1CN(c2ccc(Nc3cc(NCc4cc(F)cc(F)c4)c(C(N)=O)cn3)cc2)C[C@H](C)N1
3. NC(=O)c1cnc(Nc2ccc(N3CCC(CCO)CC3)cc2)cc1NCc1cc(F)cc(F)c1
4. N#Cc1cc(Nc2cc(NCc3cc(F)cc(F)c3)c(C(N)=O)cn2)ccc1N1CCOCC1
5. NC(=O)c1cnc(Nc2ccc(N3CCOCC3)cc2)cc1NCc1cc(F)cc(C(F)(F)F)c1
6. CCN(CC)CC(=O)N1CCN(c2ccc(Nc3cc(NCc4ccccc4)c(C(N)=O)cn3)cc2)CC1
7. N#CCCN1CCN(c2ccc(Nc3cc(NCc4cc(F)cc(F)c4)c(C(N)=O)cn3)cc2)CC1

79
83
78
61
74
79
85

Report inhibition at 0.1 µM for each item below.
1. COC1CCN(c2ccc(Nc3cc(NCc4cc(F)cc(F)c4)c(C(N)=O)cn3)cc2)CC1
2. CNCCN1CCN(c2ccc(Nc3cc(NCc4cc(F)cc(F)c4)c(C(N)=O)cn3)cc2)CC1
3. CS(=O)(=O)Nc1ccc(Nc2cc(NCc3cc(F)cc(F)c3)c(C(N)=O)cn2)cc1
4. CC(C)S(=O)(=O)N1CCN(c2ccc(Nc3cc(NCc4c(F)cccc4F)c(C(N)=O)cn3)cc2)CC1
5. CCN(CC)C(=O)Nc1ccc(Nc2cc(NCc3ccccc3)c(C(N)=O)cn2)cc1
6. NC(=O)c1cccc(CNc2cc(Nc3ccc(N4CCOCC4)cc3)ncc2C(N)=O)c1

[89, 88, 100, 59, 59, 70]

====

Please provide measured inhibition at 0.1 µM for the entries that follow.
# study-system: Recombinant human JAK3 enzyme (JAK3 kinase region; Ala795-Ser1124) (Homo sapiens)
# assay-method-text: JAK3 Kinase Assay (Kinase-Glo luminescent, ATP consumption)
# experimental-context: read-out: Inhibition rate (%) of JAK3 kinase activity
Structures can show the parent of a compound that is named as a salt.
Numbers only, in %.

compound	inhibition at 0.1 µM / %
NC(=O)c1cnc(Nc2ccc(C(=O)C(F)(F)F)cc2)cc1NCc1cc(F)cc(F)c1 [Example 326]	71
CC(C)N1CCN(c2ccc(Nc3cc(NCc4cccc(F)c4F)c(C(N)=O)cn3)cc2)CC1 [Example 150]	66
Cc1ccccc1CNc1cc(Nc2ccc(N3CCC(O)CC3)cc2)ncc1C(N)=O [Example 185]	87
NC(=O)c1cnc(Nc2ccc(NC(=O)C3CCNCC3)cc2)cc1NCc1cc(F)cc(F)c1 [Example 315, hydrochloride]	60
NCCS(=O)(=O)Nc1ccc(Nc2cc(NCc3cc(F)cc(F)c3)c(C(N)=O)cn2)cc1 [Example 305]	77
N#CCC(=O)N1CCN(c2ccc(Nc3cc(NCc4cc(F)ccc4F)c(C(N)=O)cn3)cc2)CC1 [Example 265]	74

Report inhibition at 0.1 µM for each item below.
1. C[C@H]1COCCN1c1ccc(Nc2cc(NCc3ccccc3)c(C(N)=O)cn2)cc1 [Example 134]
2. CCCS(=O)(=O)Nc1ccc(Nc2cc(NCc3cc(F)cc(F)c3)c(C(N)=O)cn2)cc1 [Example 162]

[83, 72]
